Entries annotated with measured pKi
target: rat nNOS (Rattus norvegicus (Rat)); details: read-out: Ki nNOS; rat nNOS; Ki from IC50 by Cheng-Prusoff
Please treat pKi as minus the base-10 logarithm of the molar concentration.

compound="N#Cc1cccc(CNCCc2ccnc(-n3ccnc3)n2)c1 [Compound 28]" assayed_system="rat nNOS (Rattus norvegicus (Rat))" recorded_metric=pKi test_result=6.74
compound="Cc1cn(-c2nccc(CCNCCCc3cccc(F)c3)n2)cn1 [Compound 31]" assayed_system="rat nNOS (Rattus norvegicus (Rat))" recorded_metric=pKi test_result=6.18
compound="Fc1cccc(CCNCCc2cncc(-n3ccnc3)c2)c1 [Compound 48]" assayed_system="rat nNOS (Rattus norvegicus (Rat))" recorded_metric=pKi test_result=5.26
compound="Fc1cccc(CCN2CCN(c3ccnc(-n4ccnc4)n3)CC2)c1 [Compound 2]" assayed_system="rat nNOS (Rattus norvegicus (Rat))" recorded_metric=pKi test_result=5.33

Could you now consider this next compound?
Query :: Report pKi under test system rat nNOS (Rattus norvegicus (Rat)) for Fc1cccc(CCCNCCc2ccnc(-n3ccnc3)n2)c1 [Compound 7] .
Result :: 7.72

* * *

Entries annotated with measured Ki
molecular target: iNOS (Mus musculus (Mouse)); assay: biochemical
Could you write the number and then its unit?

chemical_smiles=Clc1cccc(CCCNCCc2ccnc(-n3ccnc3)n2)c1 test_result="2 µM"

Could you now consider this next molecule?
Query :: Respond only with Ki recorded for Cc1cn(-c2nccc(CCNCCCc3cccc(F)c3)n2)cn1
Result :: 287 µM

* * *

Quick record: pKi, eNOS (Bos taurus, UniProt P29473).
Please treat pKi as minus the base-10 logarithm of the molar concentration.

molecule="Fc1cccc(CCNCCc2ccnc(-n3ccnc3)n2)c1 [Compound 6]" test_result=5.40
molecule="Fc1cccc(CC2CC2NCCc2ccnc(-n3ccnc3)n2)c1 (centres unmarked) [Compound 27]" test_result=4.84
molecule="Clc1cccc(CCCNCCc2ccnc(-n3ccnc3)n2)c1 [Compound 25]" test_result=5.09
molecule="Fc1cccc(C2CC2CNCCc2ccnc(-n3ccnc3)n2)c1 (centres unmarked) [Compound 26]" test_result=5.40

Could you now consider this next molecule?
Query :: Report pKi under test system eNOS (Bos taurus, UniProt P29473) for Fc1cccc(CCCNCCc2ccnc(-n3ccnc3)n2)c1 [Compound 7] .
Result :: 5.31

* * *

Quick record: pKi, human nNOS (Homo sapiens (Human)).
Please treat pKi as minus the base-10 logarithm of the molar concentration.

Below: 6 molecules and their reported pKi.
molecule="N#Cc1cccc(CNCCc2ccnc(-n3ccnc3)n2)c1 [Compound 28]" recorded_metric=pKi test_result=6.86
molecule="Fc1cccc(CCCNCCc2ccnc(-n3ccnc3)n2)c1 [Compound 7]" recorded_metric=pKi test_result=6.71
molecule="c1cncc(CCCNCCc2ccnc(-n3ccnc3)n2)c1 [Compound 29]" recorded_metric=pKi test_result=6.90
molecule="Fc1cccc(CC2CC2NCCc2ccnc(-n3ccnc3)n2)c1 (stereo not shown) [Compound 27]" recorded_metric=pKi test_result=6.45
molecule="Clc1cccc(CCCNCCc2ccnc(-n3ccnc3)n2)c1 [Compound 25]" recorded_metric=pKi test_result=6.90
molecule="Cc1cn(-c2nccc(CCNCCCc3cccc(F)c3)n2)cn1 [Compound 31]" recorded_metric=pKi test_result=5.35

Query :: Respond only with pKi recorded for Fc1cccc(C2CC2CNCCc2ccnc(-n3ccnc3)n2)c1 (stereo not shown) [Compound 26]
Result :: 6.44
